Assignment: determine reported IC50 for the given compounds.
tested on: HeLa; test: Cytotoxicity against human HeLa cells assessed as inhibition of cell growth incubated for 48 hrs by MTT assay; assay type: functional, cell-based
Numbers only, in µM.

Use these answered entries as a reference point.
SMI	IC50 / µM
CCCOc1ccc(-c2cc(C(F)(F)F)nn2-c2ccc3c4c(cccc24)C(=O)N(CCN(C)C)C3=O)cc1	5.06
CCCOc1cc(OCCC)cc(-c2cc(C(F)(F)F)nn2-c2ccc3c4c(cccc24)C(=O)N(CCN(C)C)C3=O)c1	5.06
CCOc1cccc(-c2cc(C(F)(F)F)nn2-c2ccc3c4c(cccc24)C(=O)N(CCN(C)C)C3=O)c1	5.06
CN(C)CCN1C(=O)c2cccc3cc(NC(=O)CCNC(=O)C(Cl)Cl)cc(c23)C1=O	21.5
CCCCOc1cc(OCCCC)cc(-c2cc(C(F)(F)F)nn2-c2ccc3c4c(cccc24)C(=O)N(CCN(C)C)C3=O)c1	5.06

The following compounds each have a reported value; give each one's IC50.
1. CN(C)CCN1C(=O)c2cccc3cc(NC(=O)CCCCCN)cc(c23)C1=O
2. COc1cc(OC)cc(-c2cc(C(F)(F)F)nn2-c2ccc3c4c(cccc24)C(=O)N(CCN(C)C)C3=O)c1
3. CCOc1cc(OCC)cc(-c2cc(C(F)(F)F)nn2-c2ccc3c4c(cccc24)C(=O)N(CCN(C)C)C3=O)c1

[21.5, 5.06, 5.06]

###

tested on: HeLa; experiment: Antiproliferative activity against human HeLa cells assessed as inhibition of cell proliferation incubated for 48 hrs by coulter counter assay; format: functional, cell-based
PROPERTY: IC50

Use these answered entries as a reference point.
COMPOUND	PROPERTY	ENDPOINT_RESULT
CCOP(=O)(CC(O)Cn1cc(CN2C(=O)c3cccc4cc([N+](=O)[O-])cc(c34)C2=O)nn1)OCC (centres undefined)	IC50	> 250 µM
CCOP(=O)(CC(O)Cn1cc(CN2C(=O)c3cccc4cccc(c34)C2=O)nn1)OCC (centres undefined)	IC50	> 250 µM
CCOP(=O)(CCCn1cc(CN2C(=O)c3cccc4cccc(c34)C2=O)nn1)OCC	IC50	> 250 µM
CCOP(=O)(CCOCCn1cc(CN2C(=O)c3cccc4cc([N+](=O)[O-])cc(c34)C2=O)nn1)OCC	IC50	> 250 µM
CCOP(=O)(CC(O)Cn1cc(CN2C(=O)c3cccc4c(Br)ccc(c34)C2=O)nn1)OCC (centres undefined)	IC50	> 250 µM

The following compounds each have a reported value; give each one's IC50.
1. CCOP(=O)(CC(=O)NCn1cc(CN2C(=O)c3cccc4cccc(c34)C2=O)nn1)OCC
2. CCOP(=O)(Cn1cc(CN2C(=O)c3cccc4c(Br)ccc(c34)C2=O)nn1)OCC
3. CCOP(=O)(CC(=O)NCn1cc(CN2C(=O)c3cccc4cc([N+](=O)[O-])cc(c34)C2=O)nn1)OCC
4. CCOP(=O)(Cn1cc(CN2C(=O)c3cccc4cccc(c34)C2=O)nn1)OCC
5. CCOP(=O)(CCCCn1cc(CN2C(=O)c3cccc4cccc(c34)C2=O)nn1)OCC
6. CCOP(=O)(CCCCn1cc(CN2C(=O)c3cccc4c(Br)ccc(c34)C2=O)nn1)OCC

> 250 µM
> 250 µM
> 250 µM
> 250 µM
> 250 µM
> 250 µM

The following compounds each have a reported value; give each one's IC50.
1. CCOP(=O)(CCOCCn1cc(CN2C(=O)c3cccc4cccc(c34)C2=O)nn1)OCC
2. CCOP(=O)(CCOCn1cc(CN2C(=O)c3cccc4cccc(c34)C2=O)nn1)OCC
3. CCOP(=O)(CCn1cc(CN2C(=O)c3cccc4c(Br)ccc(c34)C2=O)nn1)OCC
4. CCOP(=O)(CCn1cc(CN2C(=O)c3cccc4cc([N+](=O)[O-])cc(c34)C2=O)nn1)OCC
5. CCOP(=O)(CCCn1cc(CN2C(=O)c3cccc4c(Br)ccc(c34)C2=O)nn1)OCC
6. CCOP(=O)(CCCCn1cc(CN2C(=O)c3cccc4cc([N+](=O)[O-])cc(c34)C2=O)nn1)OCC
7. CCOP(=O)(CCCn1cc(CN2C(=O)c3cccc4cc([N+](=O)[O-])cc(c34)C2=O)nn1)OCC

> 250 µM
> 250 µM
> 250 µM
> 250 µM
> 250 µM
> 250 µM
> 250 µM

The following compounds each have a reported value; give each one's IC50.
1. CCOP(=O)(CCOCCn1cc(CN2C(=O)c3cccc4c(Br)ccc(c34)C2=O)nn1)OCC
2. CCOP(=O)(CCn1cc(CN2C(=O)c3cccc4cccc(c34)C2=O)nn1)OCC
3. CCOP(=O)(CC(=O)NCn1cc(CN2C(=O)c3cccc4c(Br)ccc(c34)C2=O)nn1)OCC
4. CCOP(=O)(CCOCn1cc(CN2C(=O)c3cccc4cc([N+](=O)[O-])cc(c34)C2=O)nn1)OCC
5. CCOP(=O)(CCOCn1cc(CN2C(=O)c3cccc4c(Br)ccc(c34)C2=O)nn1)OCC
6. CCOP(=O)(Cn1cc(CN2C(=O)c3cccc4cc([N+](=O)[O-])cc(c34)C2=O)nn1)OCC

1. > 250 µM
2. > 250 µM
3. > 250 µM
4. > 250 µM
5. > 250 µM
6. > 250 µM

// data source = ChEMBL document CHEMBL5244223
